Recorded values, source the nanobody polyreactivity screen of Harvey et al. (2022).

Assay: yeast display, Sf9 membrane polyspecificity reagent, FACS + sequencing; frameworks hold sequencing errors
MEASURED_ENDPOINT: polyreactivity (PSR sort gate)

Example entries begin here.
# ORDERED_RESIDUES, polyreactivity (PSR sort gate)
records = [
    ("QVQLVESGGGLVQAGGSLRLSCAAYGSTFDRNAMGWYRQAPGKERDLVAAISWRGGSTYYSDSVKGRFTISRDNAKNTVYLQMNSLKPDDTAVYYCNKVVTWQGPYDYWGQGTQVTVSS", "high polyreactivity"),
    ("QVQLVESGGGLVQAGGSLRLSCAASGRIFSPNAMGWYRQAHVKERELVADITFGDGSTYYADSVKGRFTISRDNAKNTVYLQMNSLIPEDTAVYYCAAELYYLYALYIYYPFYYWGQGTQVTVSS", "high polyreactivity"),
    ("QFQLVESGGGLVQARGSLRLSCAASGITFPVYAMGWYRQAPGKEREFVASIRFSTGRTYYADSVKGRFTISRDNAKNTVYLQINSLKPEDTAVYYCRGSTQSPYNSWGQGTQVTVSS", "high polyreactivity"),
    ("QVQLVESGGGLVQAGGSLRLSCAASGSTFGSYAMGWYIQAPGKERELVAAINWSGGITYYADSVKGRFTISRDNAKNTVYLQMNSLKPEDTAVYYCAADTRTYYYGSTYDYEYWGQGTQVTVSS", "low polyreactivity"),
]

Input QVQLVESGGGLVQAGGSLRLSCAASGSTFGPYAMGWYRQAPGQERELVATITRNGGSTYYADSVKGRFTISRDNAKNTVYLQMNSLKPEDTAVYYCAARLYYEIYDYGAVRIGYDYWGQGTQVTVSS , output reported polyreactivity (PSR sort gate).
low polyreactivity
